All values here come from paper PMC6465675.

experiment: in vitro; conditions: Mesocricetus auratus (hamster)
reportedProperty: CC50

Worked set:
# compound, measured
data = [
    ("O=S(=O)(c1ccccc1)n1cc(CNc2ccc(Cl)cc2)c(-c2ccc(Cl)cc2)n1", "> 100 µM"),
    ("O=S(=O)(c1ccccc1)n1cc(CNc2ccccc2)c(-c2ccc(Cl)cc2)n1", "> 100 µM"),
    ("O=S(=O)(c1ccccc1)n1cc(CNc2ccccc2)c(-c2ccccc2)n1", "> 100 µM"),
]

In: Can you share its CC50? I mean this compound: O=S(=O)(c1ccccc1)n1cc(CNc2ccccc2)c(-c2ccc(Br)cc2)n1
Out: > 100 µM

In: Can you share its CC50? I mean this compound: Cc1ccc(NCc2cn(-c3ccccc3)nc2-c2ccc(C(F)(F)F)cc2)cc1
Out: 88 µM

----------
test: in vitro; conditions: Cercopithecus aethiops (monkey), Vero76 CC50
reportedProperty: CC50

Worked set:
# molecule, CC50
records = [
    ("Cc1ccc(NCc2cn(S(=O)(=O)c3ccccc3)nc2-c2ccc(C)cc2)cc1 [7p]", "> 100 µM"),
    ("COc1c(C)c2c(c(O)c1C/C=C(\\C)CCC(=O)O)C(=O)OC2 [M 5255, Mycophenolic acid, reference compound]", "20 µM"),
]

In: Can you share its CC50? I mean this molecule: COc1ccc(S(=O)(=O)n2cc(CNc3ccccc3)c(-c3ccc(Br)cc3)n2)cc1 [8a]
Out: > 100 µM

In: Can you share its CC50? I mean this molecule: O=S(=O)(c1ccccc1)n1cc(CNc2ccccc2)c(-c2ccccc2)n1 [7a]
Out: > 100 µM

In: Can you share its CC50? I mean this molecule: COc1ccc(S(=O)(=O)n2cc(CNc3ccc(Cl)cc3)c(-c3ccc(C)cc3)n2)cc1 [8j]
Out: > 100 µM

In: Can you share its CC50? I mean this molecule: COc1ccc(S(=O)(=O)n2cc(CNc3ccccc3)c(-c3ccc(C)cc3)n2)cc1 [8i]
Out: > 100 µM

----------
reportedProperty: melting point

Worked set:
# compound, melting point
measured = [
    ("O=S(=O)(c1ccccc1)n1cc(CNc2ccccc2)c(-c2ccccc2)n1 [7a]", "139 °C"),
    ("O=S(=O)(c1ccccc1)n1cc(CNc2ccc(Cl)cc2)c(-c2ccc(Br)cc2)n1 [7f]", "137 to 138 °C"),
    ("COc1ccc(S(=O)(=O)n2cc(CNc3ccc(C)cc3)c(-c3ccc(Cl)cc3)n2)cc1 [8h]", "169 to 171 °C"),
    ("COc1ccc(S(=O)(=O)n2cc(CNc3ccc(Cl)cc3)c(-c3ccc(Cl)cc3)n2)cc1 [8f]", "158 to 159 °C"),
    ("O=S(=O)(c1ccccc1)n1cc(CNc2ccc(Br)cc2)c(-c2ccc(Br)cc2)n1 [7g]", "150 to 151 °C"),
]

In: Can you share its melting point? I mean this compound: Cc1ccc(NCc2cn(S(=O)(=O)c3ccccc3)nc2-c2ccccc2)cc1 [7d]
Out: 199 °C

In: Can you share its melting point? I mean this compound: O=S(=O)(c1ccccc1)n1cc(CNc2ccccc2)c(-c2ccc(Br)cc2)n1 [7e]
Out: 110 to 111 °C

In: Can you share its melting point? I mean this compound: Cc1ccc(-c2nn(S(=O)(=O)c3ccccc3)cc2CNc2ccc(Br)cc2)cc1 [7o]
Out: 110 °C

In: Can you share its melting point? I mean this compound: COc1ccc(S(=O)(=O)n2cc(CNc3ccccc3)c(-c3ccc(Br)cc3)n2)cc1 [8a]
Out: 131 to 134 °C
